# targetSystem: human OX2R (Homo sapiens)
# Sequence (O43614 whole entry): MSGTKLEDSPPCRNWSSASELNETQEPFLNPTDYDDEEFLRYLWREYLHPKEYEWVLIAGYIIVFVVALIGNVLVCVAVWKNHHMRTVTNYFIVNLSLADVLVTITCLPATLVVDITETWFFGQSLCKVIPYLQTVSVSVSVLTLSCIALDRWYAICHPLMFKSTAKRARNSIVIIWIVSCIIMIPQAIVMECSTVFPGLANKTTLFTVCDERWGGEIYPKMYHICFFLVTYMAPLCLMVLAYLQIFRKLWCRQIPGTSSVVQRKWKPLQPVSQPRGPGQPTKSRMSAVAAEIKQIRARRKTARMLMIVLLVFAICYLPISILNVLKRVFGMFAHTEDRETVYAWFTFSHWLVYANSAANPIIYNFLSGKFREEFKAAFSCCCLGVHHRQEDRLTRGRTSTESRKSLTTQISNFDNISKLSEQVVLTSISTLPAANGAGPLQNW
# measurementNotes: Calcium flux assay, OX2R agonistic activity
# reportedConditions: read-out: OX2R agonistic activity EC50; CHO cells expressing human OX2R; calcium flux; 95% confidence intervals in brackets, duplicate measurements
pEC50: −log10 of the molar value.
Param threshold (6) applies to pEC50; output t when value >= threshold, f when value < threshold.

[
  {
    "compound": "CCOC(=O)N1CCC[C@H](NS(C)(=O)=O)[C@@H]1CO[C@H]1CC[C@@H](c2ccccc2)CC1",
    "labelValue": "t"
  },
  {
    "compound": "COC(=O)N1CCC[C@H](NS(C)(=O)=O)[C@@H]1CO[C@H]1CC[C@@H](c2ccccc2)CC1",
    "labelValue": "t"
  },
  {
    "compound": "CCCS(=O)(=O)N[C@H]1CCCN(C(C)=O)[C@H]1CO[C@H]1CC[C@@H](C(C)C)CC1",
    "labelValue": "f"
  },
  {
    "compound": "CCS(=O)(=O)N[C@H]1CCCN(C(C)=O)[C@H]1CO[C@H]1CC[C@H](C(C)C)CC1",
    "labelValue": "f"
  },
  {
    "compound": "CCS(=O)(=O)N[C@H]1CCCN(C(C)=O)[C@H]1CO[C@H]1CC[C@@H](C(C)C)CC1",
    "labelValue": "t"
  },
  {
    "compound": "CCC(=O)N1CCC[C@H](NS(C)(=O)=O)[C@@H]1CO[C@H]1CC[C@@H](c2ccccc2)CC1",
    "labelValue": "t"
  },
  {
    "compound": "CCS(=O)(=O)NC1CCCN(C(C)=O)C1COC1CCC(C(C)C)CC1 (centres unmarked)",
    "labelValue": "t"
  }
]

Data provenance is paper PMC8919389.
